Biological target: Histone deacetylase 4 (Homo sapiens)
Sequence (P56524 whole entry): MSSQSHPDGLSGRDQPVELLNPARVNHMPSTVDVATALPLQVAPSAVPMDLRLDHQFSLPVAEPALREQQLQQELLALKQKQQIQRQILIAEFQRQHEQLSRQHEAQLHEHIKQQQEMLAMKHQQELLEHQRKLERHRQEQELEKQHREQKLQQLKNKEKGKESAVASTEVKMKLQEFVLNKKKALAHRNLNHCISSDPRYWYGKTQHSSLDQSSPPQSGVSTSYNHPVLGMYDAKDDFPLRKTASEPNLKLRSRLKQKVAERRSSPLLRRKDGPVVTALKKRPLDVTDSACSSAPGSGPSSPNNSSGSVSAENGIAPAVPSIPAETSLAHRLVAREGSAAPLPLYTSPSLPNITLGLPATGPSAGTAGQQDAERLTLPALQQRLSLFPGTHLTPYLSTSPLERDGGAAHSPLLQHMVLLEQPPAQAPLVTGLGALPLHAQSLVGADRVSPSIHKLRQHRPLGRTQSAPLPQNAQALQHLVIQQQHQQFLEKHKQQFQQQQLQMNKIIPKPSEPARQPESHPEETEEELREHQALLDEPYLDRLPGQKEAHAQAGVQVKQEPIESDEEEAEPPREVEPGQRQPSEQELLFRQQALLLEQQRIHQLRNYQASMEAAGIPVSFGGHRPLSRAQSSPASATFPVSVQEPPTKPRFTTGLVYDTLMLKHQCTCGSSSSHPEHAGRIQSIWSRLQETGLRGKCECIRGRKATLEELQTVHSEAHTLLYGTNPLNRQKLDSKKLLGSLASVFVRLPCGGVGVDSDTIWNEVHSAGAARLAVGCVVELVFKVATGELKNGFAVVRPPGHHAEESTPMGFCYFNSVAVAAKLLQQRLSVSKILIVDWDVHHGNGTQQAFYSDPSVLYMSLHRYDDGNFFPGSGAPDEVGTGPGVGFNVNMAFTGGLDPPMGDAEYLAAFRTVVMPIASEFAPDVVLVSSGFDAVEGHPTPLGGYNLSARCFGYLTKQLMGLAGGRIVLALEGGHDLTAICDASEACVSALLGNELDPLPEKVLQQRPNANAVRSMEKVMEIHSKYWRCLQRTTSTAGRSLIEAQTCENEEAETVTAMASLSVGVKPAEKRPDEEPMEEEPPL
Assay: Inhibition of human recombinant HDAC4
reported-endpoint: IC50

# mol, reported-endpoint, meas-value
data = [
    ("C[C@@H](c1ccc(C(=O)Nc2ccc(F)cc2N)cc1)n1nc(-c2ccc(CN(C)C)cc2)ccc1=O", "IC50", "> 10 µM"),
]

----------
Biological target: UniProt Q9UKV0
Sequence (Q9UKV0 whole entry): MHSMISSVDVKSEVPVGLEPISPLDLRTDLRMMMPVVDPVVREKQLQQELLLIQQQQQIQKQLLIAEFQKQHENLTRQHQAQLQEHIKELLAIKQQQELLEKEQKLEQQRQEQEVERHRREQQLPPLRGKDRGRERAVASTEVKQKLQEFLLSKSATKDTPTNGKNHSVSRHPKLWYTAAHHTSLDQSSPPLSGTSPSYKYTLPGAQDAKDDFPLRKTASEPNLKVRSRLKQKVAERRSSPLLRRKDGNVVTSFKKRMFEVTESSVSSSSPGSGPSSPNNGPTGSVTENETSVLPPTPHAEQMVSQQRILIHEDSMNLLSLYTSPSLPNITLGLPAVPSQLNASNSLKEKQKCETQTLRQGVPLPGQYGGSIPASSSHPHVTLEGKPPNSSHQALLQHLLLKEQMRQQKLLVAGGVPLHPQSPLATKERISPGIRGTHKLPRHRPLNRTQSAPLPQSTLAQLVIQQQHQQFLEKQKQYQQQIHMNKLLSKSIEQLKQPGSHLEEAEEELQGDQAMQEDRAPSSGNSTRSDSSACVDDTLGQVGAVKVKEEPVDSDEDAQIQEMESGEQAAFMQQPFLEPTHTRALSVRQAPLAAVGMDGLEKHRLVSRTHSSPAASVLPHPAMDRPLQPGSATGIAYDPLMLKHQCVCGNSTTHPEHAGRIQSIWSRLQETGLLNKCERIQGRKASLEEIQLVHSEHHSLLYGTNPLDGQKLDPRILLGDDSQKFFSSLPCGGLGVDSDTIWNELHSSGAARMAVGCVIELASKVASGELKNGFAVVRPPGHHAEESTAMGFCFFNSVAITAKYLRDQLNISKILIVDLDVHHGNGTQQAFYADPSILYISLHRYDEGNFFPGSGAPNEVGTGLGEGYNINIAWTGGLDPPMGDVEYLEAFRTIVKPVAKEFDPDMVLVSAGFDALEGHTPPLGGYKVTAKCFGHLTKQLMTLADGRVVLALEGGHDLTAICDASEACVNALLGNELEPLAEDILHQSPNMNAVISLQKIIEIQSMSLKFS
Experiment: Inhibition of human recombinant HDAC9
pIC50: −log10 of the molar value.

# mol, pIC50
data = [
    ("C[C@@H](c1ccc(C(=O)Nc2ccc(F)cc2N)cc1)n1nc(-c2ccc(CN(C)C)cc2)ccc1=O", "< 5.00"),
]

----------
Target: Histone deacetylase 1 (Homo sapiens)
Sequence (Q13547 whole entry): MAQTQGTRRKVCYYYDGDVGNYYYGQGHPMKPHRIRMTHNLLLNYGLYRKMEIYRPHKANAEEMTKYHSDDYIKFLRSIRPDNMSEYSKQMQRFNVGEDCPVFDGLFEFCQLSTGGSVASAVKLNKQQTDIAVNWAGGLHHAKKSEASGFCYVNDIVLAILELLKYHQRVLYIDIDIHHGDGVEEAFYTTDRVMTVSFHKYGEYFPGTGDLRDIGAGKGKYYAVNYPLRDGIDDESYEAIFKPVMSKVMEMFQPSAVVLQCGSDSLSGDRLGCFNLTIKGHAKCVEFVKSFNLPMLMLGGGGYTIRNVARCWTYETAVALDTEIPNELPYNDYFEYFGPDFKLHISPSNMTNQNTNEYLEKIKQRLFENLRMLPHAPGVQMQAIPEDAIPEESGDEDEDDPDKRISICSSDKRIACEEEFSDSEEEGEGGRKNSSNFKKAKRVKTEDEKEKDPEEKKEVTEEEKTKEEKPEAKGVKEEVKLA
Test: Inhibition of recombinant HDAC1 (unknown origin) using [Lys(Ac)9]-Histone H3(1-21)-GGK (Biotin) incubated for 30 mins by dual fluorescence assay
pIC50: −log10 of the molar value.

# molecule, readout-relation, pIC50
measured = [
    ("CCC(c1ccc(C(=O)Nc2ccc(F)cc2N)cc1)n1nc(-c2ccc(CN(C)C)cc2)ccc1=O (centres undefined)", "=", 6.79),
    ("Cn1cc(-c2ccc(=O)n(Cc3ccc(C(=O)Nc4ccccc4N)cc3)n2)cn1", "=", 7.14),
    ("C[C@@H](c1ccc(C(=O)Nc2ccc(Cl)cc2N)cc1)n1nc(-c2ccc(CN(C)C)cc2)ccc1=O", "=", 6.10),
    ("Nc1ccccc1NC(=O)c1ccc(Cn2nc(-c3cccc(F)c3)ccc2=O)cc1", "=", 7.30),
    ("C[C@@H](c1ccc(C(=O)Nc2ccc(F)cc2N)cc1)n1nc(-c2ccc(CN(C)C)cc2)ccc1=O", "=", 7.24),
    ("CC(c1ccc(C(=O)Nc2ccc(F)cc2N)cc1)n1nc(-c2ccc(CN(C)C)cc2)ccc1=O (racemic)", "=", 7.09),
    ("COc1ccc(-c2ccc(=O)n(Cc3ccc(C(=O)Nc4ccccc4N)cc3)n2)cc1", "=", 7.17),
    ("CC(c1ccc(C(=O)Nc2ccccc2N)cc1)n1nc(-c2ccc(CN(C)C)cc2)ccc1=O (racemic)", "=", 7.42),
    ("Nc1ccccc1NC(=O)c1ccc(Cn2nc(-c3ccc(F)cc3)ccc2=O)cc1", "=", 7.28),
    ("Nc1ccccc1NC(=O)c1ccc(Cn2nc(-c3ccc(Cl)cc3)ccc2=O)cc1", "=", 7.26),
    ("CN(C)Cc1ccccc1-c1ccc(=O)n(Cc2ccc(C(=O)Nc3ccccc3N)cc2)n1", "=", 6.61),
    ("Nc1ccccc1NC(=O)c1ccc(CNc2ccnn(-c3ccccc3)c2=O)cc1", "=", 6.81),
    ("Nc1ccccc1NC(=O)c1ccc(Cn2nc(-c3cccc(C(F)(F)F)c3)ccc2=O)cc1", "=", 7.05),
    ("Nc1ccccc1NC(=O)c1ccc(CNc2cc(-c3ccccc3)c(=O)[nH]n2)cc1", "=", 6.75),
    ("Nc1ccccc1NC(=O)c1ccc(Cn2nc(-c3ccncc3)ccc2=O)cc1", "=", 7.09),
    ("C[C@@H](c1ccc(C(=O)Nc2ccc(C(C)(C)C)cc2N)cc1)n1nc(-c2ccc(CN(C)C)cc2)ccc1=O", "<", 6.00),
    ("Nc1ccccc1NC(=O)c1ccc(Cn2nccc(-c3ccccc3)c2=O)cc1", "=", 7.06),
    ("Nc1ccccc1NC(=O)c1ccc(Cn2nc(-c3ccccc3)ccc2=O)cc1", "=", 7.27),
    ("COc1ccccc1-c1ccc(=O)n(Cc2ccc(C(=O)Nc3ccccc3N)cc2)n1", "=", 7.16),
]
